Experiment: Volume of distribution in C57BL/6J mouse at 4 mg/kg, iv
Type: ADME, organism-based
Design: dose 4 mg/kg, route intravenous
Settings: in vivo

# smiles structure, units text, Vd
data = [
    ("CCc1cc(C(=O)N[C@@H]2C[C@@H](C(N)=O)N(C(=O)c3coc4ccccc34)C2)n(CC)n1", "L/kg", 3.68),
]

---

Target: Enoyl-[acyl-carrier-protein] reductase [NADH] (Mycobacterium tuberculosis, UniProt P9WGR1)
Sequence (P9WGR1 whole entry): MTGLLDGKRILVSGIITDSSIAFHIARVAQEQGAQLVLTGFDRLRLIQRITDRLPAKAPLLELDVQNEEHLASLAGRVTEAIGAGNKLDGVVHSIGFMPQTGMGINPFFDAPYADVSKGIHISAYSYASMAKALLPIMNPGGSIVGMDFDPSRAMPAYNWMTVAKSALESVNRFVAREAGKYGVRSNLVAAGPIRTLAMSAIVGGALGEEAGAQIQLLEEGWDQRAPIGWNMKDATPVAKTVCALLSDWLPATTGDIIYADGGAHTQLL
Recorded IC50 for the following molecules

# smiles structure, units text, IC50
data = [
    ("CCc1cc(C(=O)N[C@@H]2C[C@@H](C(=O)Nc3cc(C)on3)N(C(=O)c3coc4ccccc34)C2)n(C)n1", "nM", 18),
    ("CCc1cc(C(=O)N[C@@H]2C[C@@H](C(=O)NCC(=O)OC)N(C(=O)c3coc4ccccc34)C2)n(C)n1", "nM", 5),
    ("COC(=O)CNC(=O)[C@@H]1C[C@@H](NC(=O)c2cc(C3CC3)nn2C)CN1C(=O)c1coc2ccccc12", "nM", 15),
]

---

Molecular target: UniProt:P9WGR1
Output true for records whose IC50 is lower than 7 nM, false for records at or above 7 nM.

# smiles structure, class assignment
rows = [
    ("CCc1cc(C(=O)N[C@@H]2C[C@@H](C(=O)NCCc3ccccn3)N(C(=O)c3coc4ccccc34)C2)n(CC)n1", "true"),
    ("CCc1cc(C(=O)N[C@@H]2C[C@@H](C(=O)NCc3nc4ccccc4o3)N(C(=O)c3coc4ccccc34)C2)n(C)n1", "true"),
    ("CCc1cc(C(=O)N[C@@H]2C[C@@H](C(=O)NCCNC(C)=O)N(C(=O)c3coc4ccccc34)C2)n(C)n1", "false"),
    ("CCCn1nc(CC)cc1C(=O)N[C@@H]1C[C@@H](C(=O)NCC(=O)OC)N(C(=O)c2coc3ccccc23)C1", "false"),
    ("CCc1cc(C(=O)N[C@@H]2C[C@@H](C(=O)OC)N(C(=O)c3coc4ccccc34)C2)n(C)n1", "false"),
    ("CCOC(=O)CCNC(=O)[C@@H]1C[C@@H](NC(=O)c2cc(CC)nn2C)CN1C(=O)c1coc2ccccc12", "false"),
    ("CCc1cc(C(=O)N[C@@H]2C[C@@H](C(=O)NCc3ccc4c(c3)B(O)OC4)N(C(=O)c3coc4ccccc34)C2)n(CC)n1", "true"),
    ("CCc1cc(C(=O)N[C@@H]2C[C@@H](C(=O)NCc3ccccn3)N(C(=O)c3coc4ccccc34)C2)n(CC)n1", "true"),
    ("CCc1cc(C(=O)N[C@@H]2C[C@@H](C(=O)Nc3ccn(CC4CCCCC4)n3)N(C(=O)c3coc4ccccc34)C2)n(C)n1", "false"),
    ("CCc1cc(C(=O)N[C@@H]2C[C@@H](C(=O)NCC(=O)OC)N(C(=O)c3coc4ccccc34)C2)n(Cc2ccccc2)n1", "false"),
    ("COC(=O)CNC(=O)[C@@H]1C[C@@H](NC(=O)c2cc(CC(C)C)nn2C)CN1C(=O)c1coc2ccccc12", "false"),
]
